Tested on: K562
Experiment: NCI tumour cell line growth inhibition, 48 h
The source made the active and inactive calls. Rule as the data show it: active = GI50 up to about 1.1 µM and inactive = higher.
Valid outcomes are listed here; reply with one: 1 = active, 0 = inactive

Solved entries:
>  <molecule>
COc1cc2c(cc1OC)C(CCN)=NCC2

>  <label>
0

$$$$
>  <molecule>
O=C(CC(=O)N(C(=O)c1ccccc1)c1ccc(Cl)cc1)N/N=C\c1ccccc1O

>  <label>
0

$$$$
>  <molecule>
C[n+]1c2ccccc2c(CNC(CCC(N)=O)C(=O)O)c2ccccc21 (stereo not drawn)

>  <label>
1

$$$$
>  <molecule>
O=C(N/N=C/c1cc(Cl)cc(Cl)c1O)c1ccccc1O

>  <label>
1

$$$$
>  <molecule>
C/C(N)=C/C(=O)c1[nH]c(C(=O)O)cc1C1CCN(Cc2ccccc2)C1=O (stereo not drawn)

>  <label>
0

$$$$

Q: Call for entry `Cc1n[nH]c(N)c1C(N)=O` :
Ans: 0

Q: Name the outcome recorded for Cc1ccccc1C(C#N)C(=O)C(=O)Nc1cccc(Cl)c1 (stereo not drawn) in the assay.
Ans: 0

Q: Write down the call the test reported for this molecule. Item: CCN1CCC(O)(c2ccccc2)C(C(=O)c2ccccc2)C1 (stereo not drawn)
Ans: 0

Q: Short answer needed: outcome of this test for `O=C(O)C1(C(=O)O)CC1(C(=O)O)C(=O)O` ?
Ans: 0

Q: Could you kindly confirm the outcome this assay logged for `Nc1nc(=O)[nH][nH]1` ?
Ans: 0

Q: Recorded test call requested for O=C(O)C1C(C(=O)O)C23CC2(C(=O)O)C2(C(=O)O)CCC3=C3CCCC312 (stereo not drawn)
Ans: 0

Q: I would be grateful if you could indicate the recorded call for CCN(CC)c1c(C)nnn1C1OC(COC(C)=O)C(OC(C)=O)C(OC(C)=O)C1OC(C)=O (stereo not drawn) .
Ans: 0

Q: Give the logged outcome of this assay for the following molecule: C=C1CN2CCc3c([nH]c4ccccc34)C2CC1CC(=O)N(C)C (stereo not drawn)
Ans: 0

---

Tested on: SNB-75
Test: NCI tumour cell line growth inhibition, 48 h
Where a name gives a salt, the structure may show the parent alone. Activity calls are given as the source filed them. Cut-off read from the data, not from the text of the source: active = GI50 up to about 1.1 µM and inactive = higher.
One label from this list, please: active, inactive

Answered cases to consult:
>  <molecule>
Cc1nc(Cl)c(CBr)c(Cl)n1

>  <label>
active

$$$$
>  <molecule>
Oc1ccccc1C(c1cc2c(cc1O)OCO2)N1CCOCC1 (configuration not stated)

>  <label>
inactive

$$$$
>  <molecule>
O=c1[nH]nc(Nc2ccccc2)c2nnn(Cc3ccccc3)c12

>  <label>
inactive

$$$$
>  <molecule>
COC(=O)c1nn(C(=N)c2ccc(Cl)cc2)c2c1CCC2

>  <label>
inactive

$$$$
>  <molecule>
COc1ccc(-c2cc(=O)c3cc(C)c(C)c(C(=O)O)c3o2)cc1

>  <label>
inactive

$$$$
>  <molecule>
CNC(C)Cc1ccccc1OC (configuration not stated) [METHOXYPHENAMINE HYDROCHLORIDE]

>  <label>
inactive

$$$$

Q: Tell me the assay call for `CC(C)CN(CC#N)CC(C)C` please.
Ans: inactive

---

Tested on: SF-295
Experiment: NCI tumour cell line growth inhibition, 48 h
Calls of active or inactive are those of the source. No stated cut-off is given here; in the data, active = GI50 up to about 1.1 µM and inactive = higher.
Measured GI50 values are reported for all entries that follow.

Worked set:
>  <compound>
CN(C)/C(=N/C(=O)Nc1ccccc1)SCc1ccccc1

>  <GI50>
> 100 µM (inactive)

$$$$
>  <compound>
CN(CCCCCl)P(=O)(OCc1ccc([N+](=O)[O-])o1)OCC1OC(n2ccc(N)nc2=O)C(O)C1O (configuration not stated)

>  <GI50>
13.9 µM (inactive)

$$$$
>  <compound>
COc1cc2c(cc1OC)C(CCN)=NCC2

>  <GI50>
> 100 µM (inactive)

$$$$
>  <compound>
Clc1cc2nnn(C3CCCO3)c2cc1Cl (configuration not stated)

>  <GI50>
> 100 µM (inactive)

$$$$

Q: Give the value of GI50 reported for the following: C#CCCOC(=O)CC1=C(C)/C(=C/c2ccc([S+](C)[O-])cc2)c2ccc(F)cc21 (configuration not stated)
Ans: 13.9 µM (inactive)

Q: Give the reported value of GI50 for this record: `COc1ccc(OC)c2cc(C3(C)SCCCS3)ccc12`
Ans: 78.2 µM (inactive)

Q: Indicate its recorded GI50; the compound in question is NNC(=O)C1CCC(=O)N1S(=O)(=O)c1ccccc1 (configuration not stated)
Ans: > 100 µM (inactive)
